src = patent USRE46585

targetSystem: T1, FcRn-p3 fusion protein (human, UniProt P55899 24-297; P61769 21-119)
T1 construct: baculovirus expressed; coated on ELISA wells; not shown: amino terminal part of bacteriophage p3 protein and CVDE protein
T1 sequence (P55899 24-297, chain 1 of 2): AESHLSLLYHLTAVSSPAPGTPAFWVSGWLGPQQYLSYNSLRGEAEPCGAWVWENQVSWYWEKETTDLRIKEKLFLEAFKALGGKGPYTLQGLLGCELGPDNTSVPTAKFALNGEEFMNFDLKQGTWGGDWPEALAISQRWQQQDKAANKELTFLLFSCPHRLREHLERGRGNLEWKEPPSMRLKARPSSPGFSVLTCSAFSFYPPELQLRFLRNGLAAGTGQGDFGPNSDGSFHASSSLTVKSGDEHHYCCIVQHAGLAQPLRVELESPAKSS
T1 sequence (P61769 21-119, chain 2 of 2): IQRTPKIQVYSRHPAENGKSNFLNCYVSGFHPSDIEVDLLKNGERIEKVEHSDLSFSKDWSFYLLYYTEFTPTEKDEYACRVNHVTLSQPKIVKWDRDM
testDescription: phage ELISA pH6 (est.)
attributeMeasured: Ratio/FWT (fold)
Answer format: numeric, fold implied, no suffix.

## Task What value of Ratio/FWT has been recorded for this entry: C7A_27 (other, EU numbering) CPPCPAPELLGGPSVFLFPPKPKDTLMISRTPEVTCVVEDVSHEDPEVKFNWYVDGVEVHNAKTKPREEQYNSTYRVVSVLNVLHQDWLNGKEYKCKVSNKALPAPIEKTISKAKGQPREPQVYTLPPSRDELTKNQVSLTCLVKGFYPSDIVVEWESNGQPENNYKTTPPMLDSDGSFFLYSKLTVDKSRWQQGNVFSCSVMHEALHYHYTQKSLSLSPGK
## Result 8.2

## Task What value of Ratio/FWT has been recorded for this entry: C6A_35 (other, EU numbering) CPPCPAPELLGGPSVFLFPPKPKDALMISRTPEVTCVVVDVSHEDPEVKFNWYVDGVEVHNAKTKPREEQYNSTYRVVSVLTVLHQDWLDGKEYKCKVSNKALPVPIEKTISKAKGQPREPQVYTLPPSRDELTKNQVSLTCLVKGFYPSDIAVEWESNGQPENNYKTTPPVLDSDGSFFLYSKLTVDKSRWQQGNVFSCSVMHEALHYHYTQKSLSLSPGK
## Result 5.7

## Task What value of Ratio/FWT has been recorded for this entry: T3A_22 (other, EU numbering) CPPCPAPELLGGPSVLLFPPKPKDTLMISRTPEVTCVVEDVSHEDPEVKFNWYVDGVEVHNAKTKPREEQYNSTYRVVSVLTVLHQDWLNGKEYKCKVSNKALPAPIEKTISKAKGQPREPQVYTLPPSRDELTKNQVSLTCLVKGFYPSDIVVEWESNGQPENNYKTTPPVLDSDGSFFLYSKLTVDKSRWQQGNVFSCSVMHEALHSHYTQKSLSLSPGK
## Result 12.2
